# Test system: HCC1569;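 note: TDF denotes transformed human dermal fibroblasts of mesenchymal origin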
# Method: cell number relative to DMSO (% of DMSO); higher = more cells (less growth inhibition / toxicity)
# Cond: concentration: 10 µM; 24 h
Listed here are compounds together with their documented cell number.
Measured Attribute: cell number

Compound | Measured Attribute | Measurement
Cc1c(C(C)C2NCC(C)CC2O)ccc2c1CC1C2CC=C2CC(O)CCC21C (stereo unspecified) | cell number | 96.7
COC1=CC(=O)OC(CCc2ccc3c(c2)OCO3)C1 (stereo unspecified) [Dihydromethysticin] | cell number | 96.6
CC1CCC2C(C)C(=O)OC3OC4(C)CCC1C32OO4 (stereo unspecified) | cell number | 102
CCC1CN2CCc3cc(OC)c(OC)cc3C2CC1CC1NCCc2cc(OC)c(OC)cc21.Cl.Cl (stereo unspecified) [Emetine dihydrochloride hydrate] | cell number | 57.5
CN1C2CCC1CC(OC(=O)c1cc(Cl)cc(Cl)c1)C2 (stereo unspecified) [3-Tropanyl-3,5-dichlorobenzoate] | cell number | 100
COc1cc2c(c(OC)c1OC)-c1ccc(OC)c(=O)cc1C(NC(C)=O)CC2 (stereo unspecified) | cell number | 57.6
CC(C)(C)NCC(O)c1cc(Cl)c(N)c(Cl)c1 (stereo unspecified) | cell number | 99.5
COc1ccc2c(c1O)-c1cccc3c1C(C2)N(C)CC3.Cl (stereo not drawn) [R(-)-Apocodeine hydrochloride] | cell number | 103
CC(C)NCC(O)c1ccc(N)c(C#N)c1 (stereo unspecified) | cell number | 103
C[N+]1(C)C2CC(OC(=O)C(CO)c3ccccc3)CC1C1OC12.[Br-] (single isomer, unassigned; (-)) [(-)-Scopolamine methyl bromide] | cell number | 104
CC(=CC=CC(C)C(=O)O)C1CNC(C(=O)O)C1CC(=O)O (stereo unspecified) | cell number | 101
NCC1(CC(=O)O)CCCCC1 | cell number | 104
Cl.OCc1cnc[nH]1 [4-Imidazolemethanol hydrochloride] | cell number | 99.6
Ic1ccccc1CNC1C2CCN(CC2)C1C(c1ccccc1)c1ccccc1.O=C(O)C(=O)O [L-703,606 oxalate] | cell number | 85.3
NC(N)=NOCC[C@H](N)C(=O)O.O=S(=O)(O)O [L-Canavanine sulfate] | cell number | 101
C[N+]1(C)CCc2cc3c(cc2C1C1OC(=O)c2c1ccc1c2OCO1)OCO3.[Br-] (single isomer, unassigned; (-)) [(-)-Bicuculline methbromide, 1(S), 9(R)] | cell number | 101

// data source = the supplement of paper PMC7156485
